system: P. aeruginosa ATCC 15692; test: MIC, P. aeruginosa ATCC 15692; format: cell-based; conditions: Pseudomonas aeruginosa, ATCC15692; Table 10; Pa = P. aeruginosa

{"compound": "CNc1cc(F)cc2c1[nH]c1nc(Oc3ccc(C#N)nc3)nc(N3C[C@H]4C[C@@H]3C[C@H]4N)c12 [Compound 4.434]", "MIC": "1 µg/mL"}
{"compound": "CNc1cc(F)c(C)c2c1[nH]c1nc(Oc3cnc(C)nc3)nc(N3C[C@H](N)C4(CC4)C3)c12 [Compound 6.290]", "MIC": "2 µg/mL"}
{"compound": "CNc1cc(F)cc2c1[nH]c1nc(Oc3cnc(C(C)O)nc3)nc(N3CC4C[C@@H](N)C4C3)c12 (stereo partly shown) [Compound 4.409]", "MIC": "1 µg/mL"}
{"compound": "CNc1cc(F)c(C)c2c1[nH]c1nc(Oc3cnc(C)nc3)nc(N3CC4C[C@@H]3C[C@H]4N)c12 [Compound 6.280]", "MIC": "1 µg/mL"}
